condition label: 333.15 K; 101.33 kPa; Liquid; Concentric cylinders viscometry
± gives the expanded uncertainty stated by the source.
We begin with a simple list: items and their reported viscosity.
reported property: viscosity

INSERT INTO measurements (compound, result) VALUES
  ('CCCCCCCCCCCCCC[P+](CCCCCC)(CCCCCC)CCCCCC.O=S(=O)([N-]S(=O)(=O)C(F)(F)F)C(F)(F)F', '63.47 ± 0.59 mPa·s'),
  ('CC(CC(C)(C)C)CP(=O)([O-])CC(C)CC(C)(C)C.CCCCCCCCCCCCCC[P+](CCCCCC)(CCCCCC)CCCCCC', '232.76 ± 5 mPa·s'),
  ('CCCCCCCCCCCCCC[P+](CCCCCC)(CCCCCC)CCCCCC.N#C[N-]C#N [tetradecyl(trihexyl)phosphonium dicyanamide]', '79.73 ± 0.84 mPa·s'),
  ('CCCCCCCCCCCCCC[P+](CCCCCC)(CCCCCC)CCCCCC.CS(=O)(=O)[O-] [trihexyltetradecylphosphonium methanesulfonate]', '164.79 ± 2.8 mPa·s'),
  ('CCCCCCCCCCCCCC[P+](CCCCCC)(CCCCCC)CCCCCC.[Br-] [tetradecyltrihexylphosphonium bromide]', '328.56 ± 8.5 mPa·s'),
  ('CCCCCCCCCCCCCC[P+](CCCCCC)(CCCCCC)CCCCCC.[Cl-] [trihexyl(tetradecyl)phosphonium chloride]', '305.73 ± 7.7 mPa·s'),
  ('CCCCCCCCCC(=O)[O-].CCCCCCCCCCCCCC[P+](CCCCCC)(CCCCCC)CCCCCC [trihexyltetradecylphosphonium decanoate]', '85.75 ± 0.95 mPa·s');
